- experiment_summary: Tmax in non fasted female BALB/c mouse at 100 mg/kg, po via gavage and measured upto 24 hrs by LC-MS analysis
- Format: ADME, organism-based
- assay_context: in vivo
readout: Tmax (min)
I only need the number, in min, no unit after it.

Prompt: GET /values?readout=Tmax&item= O=S(=O)(c1nnc(N2CCOCC2)o1)C1CCCCCC1
Response: 15

Prompt: Entry O=S(=O)(c1nnc(N2CCOCC2)o1)C1CCCCC1 please
Response: 15

Prompt: Entry C[C@@H]1CCC[C@H](C)N1c1nnc(S(=O)(=O)C2CCCCC2)o1 please
Response: 30

Prompt: Entry O=S(=O)(CC1CCC1)c1nnc(N2CCOCC2)o1 please
Response: 15

====

- experiment_summary: Selectivity index, ratio of IC50 for cytotoxicity against human NFF cells to IC50 for antimalarial activity against synchronous ring stage Plasmodium falciparum 3D7 infected in human Erythrocyte assessed as inhibition of parasite growth incubated for 96 hrs
- Assay type: toxicity, cell-based
- assay_context: read-out: Ratio IC50
readout: selectivity ratio at 96 h

Below, each entry is followed by its recorded selectivity ratio at 96 h result.
Prompt: GET /values?readout=selectivity ratio at 96 h&item= CC(C)(C)OC(=O)[C@@H]1CCCN1c1nnc(S(=O)(=O)C2CCCCC2)o1
Response: > 38

Prompt: Entry O=S(=O)(c1nnc(N2CCC3(CC2)OCCO3)o1)C1CCCCC1 please
Response: > 111

Prompt: Entry CCOC(=O)C1CCCN(c2nnc(S(=O)(=O)C3CCCCC3)o2)C1 (racemic) please
Response: > 111

Prompt: Entry CC1CCN(c2nnc(S(=O)(=O)Cc3ccc(Cl)c(Cl)c3)o2)CC1 please
Response: 162

Prompt: Entry O=S(=O)(c1nnc(N2CCOCC2)o1)C1CC2CCC1C2 (racemic) please
Response: > 377

Further cases:
Prompt: GET /values?readout=selectivity ratio at 96 h&item= O=S(=O)(CC1CCCC1)c1nnc(N2CCOCC2)o1
Response: > 158

Prompt: Entry O=S(=O)(c1nnc(N2CC3CCC2C3)o1)C1CCCCC1 (racemic) please
Response: > 179

Prompt: Entry O=S(=O)(c1nnc(N2C3CCC2COC3)o1)C1CCCCC1 please
Response: > 270

Prompt: Entry CC1CCCCN1c1nnc(S(=O)(=O)C2CCCCC2)o1 (racemic) please
Response: > 277

Prompt: Entry O=S(=O)(CC1CCCCC1)c1nnc(N2CCOCC2)o1 please
Response: 151

Prompt: Entry O=S(=O)(c1nnc(N2CCOCC2)o1)C1CCOCC1 please
Response: > 14

Prompt: Entry O=S(=O)(c1nnc(N2CC3CCC(C2)O3)o1)C1CCCCC1 please
Response: > 1000

Prompt: Entry CC1CN(c2nnc(S(=O)(=O)C3CCCCC3)o2)CCO1 (racemic) please
Response: > 263

Prompt: Entry CC1(C)CCCN(c2nnc(S(=O)(=O)C3CCCCC3)o2)C1 please
Response: > 2500

Prompt: Entry CC1CC(C)CN(c2nnc(S(=O)(=O)C3CCCCC3)o2)C1 (mixture of isomers) please
Response: > 4000

Prompt: Entry O=S(=O)(c1nnc(N2C3CCC2CC3)o1)C1CCCCC1 please
Response: 40

Prompt: Entry O=S(=O)(c1nnc(N2CCC3(CCCO3)CC2)o1)C1CCCCC1 please
Response: > 135
